Target Under Test: T1, GST-MUPP1 PDZ domain 3 (Homo sapiens (Human)), O75970
T1 chain: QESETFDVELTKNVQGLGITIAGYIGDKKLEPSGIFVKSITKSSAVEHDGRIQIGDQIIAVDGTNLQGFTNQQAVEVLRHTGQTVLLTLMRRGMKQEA
Assay Notes: G' assay; note: key of the grades not given here
Assay Readout: Classification

[[record]]
binder = "HHLVAQRDIRQFQLQHWLAI (modifications not checked) [noradrenaline transporter]"
meas_value = "4 A450 class"

[[record]]
binder = "KTMPAATYRLLTGQEQPVYL (modifications not checked) [MINT-3]"
meas_value = "1 A450 class"

[[record]]
binder = "KTMPAAMYRLLTAQEQPVYI (modifications not checked) [MINT-1]"
meas_value = "3 A450 class"

[[record]]
binder = "TALRIKKTLAKMVESQDVKI (modifications not checked) [bone morphogenetic protein receptor]"
meas_value = "1 A450 class"

